Assignment: determine reported Lipophilic Efficiency (logD) for the given molecules.
Tested on: parental HEK cells
PROTOCOL_DETAILS: HEK parental Agonist Counterscreen Assay (non-transfected cells)
Format: cell-based
MEASUREMENT_CONTEXT: HEK Agonist Activity section
One number for each entry.

Sample answers from the record:
{"columns": ["MOLECULE", "RESULT_NUMBER"],
 "data": [
  ["Cc1nc(CNC(=O)CCC2(Cc3cccc4ccccc34)CCC(=O)N2)cs1 (centres unmarked) [SR-01000187393]", 2.44],
  ["Cc1ccc2c(c1)-c1c(cnn1CC(=O)Nc1ccccn1)CO2 [SR-01000152429]", 2.49],
  ["CC1=NNC(=O)C1CC(=O)N/N=C/c1cccc2ccccc12 (centres unmarked) [SR-01000080433]", 3.22],
  ["COc1ccc2c(c1)C[C@H](C(=O)Nc1ccc(-c3cn[nH]c3)cc1OCCN1CCCC1)NC2.O=C(O)C(F)(F)F.O=C(O)C(F)(F)F.O=C(O)C(F)(F)F [SR-00000007044]", 3.98],
  ["COc1ccccc1NC(=O)NNC(=O)CN1C(=O)COc2ccccc21 [SR-01000336035]", 4.40],
  ["O=C1CCCCN1c1cccc(NS(=O)(=O)c2cc(Cl)ccc2Cl)c1 [SR-01000916375]", 1.86],
  ["CCCCCCC(=O)NNC(=O)c1c(O)c2ccccc2n(CCC)c1=O [SR-01000360839]", 4.41],
  ["CC(CCc1ccccc1)NC(=O)c1ccc2c(c1)C(Cc1ccccc1)C(=O)C[S+]2[O-] (centres unmarked) [SR-01000129880]", 1.22],
  ["Cl.Cl.Nc1[nH]ncc1-c1ccc(NC(=O)[C@H](N)Cc2cccc(F)c2)cc1 [SR-00000004378]", 3.65],
  ["O=C(CC1CCN(Cc2ccccc2O)C1=O)C1CCC(c2cccc(O)c2)C(O)C1 (centres unmarked) [SR-01000151350]", 1.47]
]}

Pending molecule:
What the record says about Cc1ccc(CCNC(=O)CN2CCN(Cc3ccccc3Cl)C2=O)cc1 [SR-01000125464] : Lipophilic Efficiency (logD) is 1.74

====

TARGET_UNDER_TEST: GPR139 (Homo sapiens)
Sequence (Q6DWJ6 1-353): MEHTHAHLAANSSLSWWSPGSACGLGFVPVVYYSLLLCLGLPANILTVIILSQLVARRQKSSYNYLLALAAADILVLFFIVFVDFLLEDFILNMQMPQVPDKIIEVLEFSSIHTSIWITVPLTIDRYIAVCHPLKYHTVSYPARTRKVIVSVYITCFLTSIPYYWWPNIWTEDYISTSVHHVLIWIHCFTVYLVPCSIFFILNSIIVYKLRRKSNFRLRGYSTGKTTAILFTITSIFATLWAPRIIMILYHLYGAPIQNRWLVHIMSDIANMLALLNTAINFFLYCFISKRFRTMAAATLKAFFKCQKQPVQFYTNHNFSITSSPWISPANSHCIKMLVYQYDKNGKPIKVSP
PROTOCOL_DETAILS: GPR139 Agonist titration / agonist counterscreen assay (calcium detection, HEK-GPR139 cells)
Assay type: cell-based
Design: expressed in transfected cells; host or cells: HEK Aequorin cells, Maxcyte transient transfection
MEASUREMENT_CONTEXT: GPR139 Agonist Activity; HEK-GPR139 cells; read-out: EC50
READOUT_LABEL: EC50 (nM)
Give bare numbers, in nM.

Sample answers from the record:
{"columns": ["MOLECULE", "UNIT_SPEC", "EC50"],
 "data": [
  ["COc1cccc(CNC(=O)Nc2ccc(-c3ccncc3)cc2)c1.O=C(O)C(F)(F)F", "nM", 408],
  ["CC(C)Cn1c2c(c(=O)[nH]c1=O)C(NC(=O)CCC1CCCCC1)(C(F)(F)F)C(=O)N2 (centres unmarked)", "nM", 430],
  ["Cc1ccccc1SCC(=O)NNC(=O)C1CCCCC1", "nM", 507],
  ["Cc1cc(NC(=O)Cn2ncc3c2-c2ccccc2OC3)no1", "nM", 1800],
  ["CC(C)(C)c1cn2cccc(OCc3ccc(Cl)c(Cl)c3)c2n1", "nM", 358]
]}

Each molecule below has a recorded value; state its EC50.
1. Cn1c(CCc2ccc(F)cc2F)nnc1C1=C(O)N=C2CC=CC21 (centres unmarked)
2. O=C(COc1ccc2ccccc2c1)NNC(=O)c1cccc([N+](=O)[O-])c1
3. COc1ccc2c(c1)C[C@H](C(=O)Nc1ccc(-c3cn[nH]c3)cc1OCCN1CCCC1)NC2.O=C(O)C(F)(F)F.O=C(O)C(F)(F)F.O=C(O)C(F)(F)F

Result:
[335, 1600, 1400]

====

TARGET_UNDER_TEST: GPR139 (Homo sapiens, UniProt Q6DWJ6)
PROTOCOL_DETAILS: GPR139 Antagonist titration assay (calcium detection, HEK-GPR139 cells, vs EC80 of S-JNJ-63533054)
MEASUREMENT_CONTEXT: based on logP
READOUT_LABEL: GPR139 Antagonist Activity Lipophilic Efficiency (logP)
Numbers only.

{"columns": ["COMPOUND", "RESULT_NUMBER"],
 "data": [
  ["Brc1ccc2[nH]cc(-c3nnc4ccc5ccccc5n34)c2c1", 1.28],
  ["O=C(CSc1nc(-c2ccccc2)cn1-c1ccc(F)cc1)Nc1ccccc1", "−521.7E−3"],
  ["CC(=O)N1N=C(c2ccc(C)cc2)CC1c1ccccc1Cl (centres unmarked)", 1.04],
  ["Cc1cc(I)ccc1NC(=O)CSc1cccs1", 0.78]
]}

Pending compound:
Value sought: GPR139 Antagonist Activity Lipophilic Efficiency (logP), system GPR139 (Homo sapiens, UniProt Q6DWJ6), item `O=C(CCCC(=O)OCC(Cl)=C(Cl)Cl)Nc1ccccc1F` . Result: 1.71

====

TARGET_UNDER_TEST: UniProt Q6DWJ6
PROTOCOL_DETAILS: GPR139 Agonist titration / agonist counterscreen assay (calcium detection, HEK-GPR139 cells)
Assay type: cell-based
Parameters: expressed in transfected cells; host or cells: HEK Aequorin cells, Maxcyte transient transfection
MEASUREMENT_CONTEXT: GPR139 Agonist Activity
READOUT_LABEL: Efficiency Ligand
Numbers only.

{"columns": ["COMPOUND", "RESULT_NUMBER"],
 "data": [
  ["CCN(Cc1ccccc1)C(=O)Cn1cnc2sc(O)c(C)c2c1=O", 0.36]
]}

Each compound below has a recorded value; state its Efficiency Ligand.
1. Cc1ccc(NC(=O)NCCCc2ccccc2)cc1
2. O=C(CN1N=C(c2ccc(Cl)cc2)CCC1=O)NCCN1CCc2ccccc2C1
3. COc1ccc2cc(CCNC(=O)/C=C\c3ccc4c(c3)OCO4)c(=O)[nH]c2c1
4. CC(C)C(=O)NNC(=O)C(C)Oc1ccc(Cl)cc1Cl (stereo not drawn)
5. Cc1cccc(CNC(=O)Nc2ccc(-c3cn[nH]c3)cc2)c1.O=C(O)C(F)(F)F
6. CCCCCCC(=O)NNC(=O)c1c(O)c2ccccc2n(CCC)c1=O
7. CNc1ccc(CCNC(=O)Cn2c3ccccc3c3nc(=O)cc(C)n32)cc1
8. Cc1cc(=O)n2nc(NCc3ccccc3Cl)nc2[nH]1

Result:
1: 0.38; 2: 0.30; 3: 0.28; 4: 0.40; 5: 0.40; 6: 0.28; 7: 0.31; 8: 0.41

====

Assignment: determine reported Averaged Max % Response (±St. Dev.) for the given compounds.
TARGET_UNDER_TEST: GPR139 (Homo sapiens, UniProt Q6DWJ6)
PROTOCOL_DETAILS: GPR139 Agonist titration / agonist counterscreen assay (calcium detection, HEK-GPR139 cells)
Assay type: cell-based
Design: expressed in transfected cells; host or cells: HEK Aequorin cells, Maxcyte transient transfection
MEASUREMENT_CONTEXT: GPR139 Agonist Activity; activity relative to known control

Sample answers from the record:
{"columns": ["COMPOUND", "TARGET_UNDER_TEST", "Averaged Max % Response (±St. Dev.)"],
 "data": [
  ["CCN1CCCc2cc(CCNC(=O)Nc3ccccc3)ccc21", "GPR139 (Homo sapiens, UniProt Q6DWJ6)", "67.60 ± 3.63%"],
  ["O=C(CC1Nc2ccccc2NC1=O)NCC1COc2ccccc2O1 (stereo not drawn)", "GPR139 (Homo sapiens, UniProt Q6DWJ6)", "88.18 ± 13.52%"],
  ["O=C(Cn1ncc2c1-c1ccccc1OC2)Nc1ccc(CCO)cc1", "GPR139 (Homo sapiens, UniProt Q6DWJ6)", "97.42 ± 2.76%"],
  ["COc1cccc(C(=O)NNC(=O)CCCOc2ccc(Cl)cc2Cl)c1", "GPR139 (Homo sapiens, UniProt Q6DWJ6)", "120.13 ± 6.96%"],
  ["CC(NC(=O)CN1C(=O)c2cccc([N+](=O)[O-])c2C1=O)c1ccc(Cl)cc1Cl (stereo not drawn)", "GPR139 (Homo sapiens, UniProt Q6DWJ6)", "109.67 ± 8.84%"],
  ["O=C(CSc1ccc(Cl)cc1)Nc1nnc(-c2ccc(F)cc2)o1", "GPR139 (Homo sapiens, UniProt Q6DWJ6)", "162.60 ± 13.73%"]
]}

Each compound below has a recorded value; state its Averaged Max % Response (±St. Dev.).
1. O=C(CSCc1ccc(Cl)cc1Cl)NNC(=O)c1ccccc1
2. O=C(C1CC(Cc2cccc3ccccc23)=NO1)N1CCC(C(O)Cc2ccccc2)CC1 (stereo not drawn)
3. O=C(Cn1ccc2ccccc21)NCCn1cnc(-c2ccccc2)cc1=O

Result:
1: 126.44 ± 4.55%; 2: 110.27 ± 5.24%; 3: 100.27 ± 11.90%
